Data provenance: paper PMC7419507

- Test Protocol: Cytotoxicity assay (CellTiter-Glo, 72 h), SKOV-3
- Format: cell-based, human
- Cond: human, SKOV-3 cells (ovarian adenocarcinoma), conc 0.00305176 uM; raw replicate data; read-out: SKOV3 viability (%)
- Description: Jurkat cells were cultured in RPMI1640 medium supplemented with 10% foetal bovine serum, penicillin (50 U/ml), streptomycin (50 μg/ml), and Glutamax. SKOV-3 cells were cultured in DMEM medium supplemented with 10% fetal bovine serum, penicillin (50 U/ml), and streptomycin (50 μg/ml). […] Cell viabilities were measured using a CellTiter-Glo luminescent cell viability assay and EnVision multilabel plate reader.
Kindly state viability at 72 h, 0.00305176 uM for each of the entries shown.
Answers are plain numbers, in %.

| Molecule | viability at 72 h, 0.00305176 uM (%) |
| --- | --- |
| COC1CC2CCC(C)C(O)(O2)C(=O)C(=O)N2CCCCC2C(=O)OC(C(C)CC2CCC(O)C(OC)C2)CCC(C)C=C(C)C(O)C(OC)C(=O)C(C)CC(C)C=CC=CC=C1C (stereo not drawn) [Compound 16, 32-desketorapamycin] | 68.9 |

I'm hoping you can list viability at 72 h, 0.00305176 uM for every molecule here, please.
1. COC1CC2CCC(C)C(O)(O2)C(=O)C(=O)N2CCCCC2C(=O)OC(C(C)CC2CCC(O)C(OC)C2)CC(=O)C(C)C=C(C)C(O)C(OC)C(=O)C(C)CC(C)C=CCCC=C1C (stereo not drawn) [Compound 15, 19,20-dihidro-rapamycin]
2. CO[C@H]1C[C@@H]2CC[C@@H](C)[C@@](O)(O2)C(=O)C(=O)N2CCCC[C@H]2C(=O)O[C@H]([C@H](C)C[C@@H]2CC[C@@H](O)[C@H](OC)C2)CC(=O)[C@H](C)/C=C(\C)[C@@H](O)CC(=O)[C@H](C)C[C@H](C)/C=C/C=C(C)/C=C/1C [Compound 2, 27-demethoxy-19-methyl rapamycin]
3. COC1CC2CCC(C)C(O)(O2)C(=O)C(=O)N2CCCCC2C(=O)OC(C(C)CC2CCC(O)C(OC)C2)CC(O)CC(=O)C(C)C=C(C)C(O)CC(=O)C(C)CC(C)C=CC=CC=C1C (stereo not drawn) [Compound 13]
4. CO[C@H]1C[C@@H]2CC[C@@H](C)[C@@](O)(O2)C(=O)C(=O)N2CCCC[C@H]2C(=O)O[C@H]([C@H](C)C[C@@H]2CC[C@@H](O)[C@H](OC)C2)CC(=O)[C@H](C)/C=C(\C)[C@@H](O)[C@@H](OC)C(=O)[C@H](C)C[C@H](C)/C=C/C=C/C=C/1C [Compound 1, rapamycin, reference compound]

Ans.
108
97
104
70.7

====

- Test Protocol: Cytotoxicity assay (CellTiter-Glo, 72 h), SKOV-3
- Assay type: cell-based, human
- Cond: human, SKOV-3 ovarian adenocarcinoma cells, conc 1.5625 uM; raw replicate data; read-out: SKOV3 viability (%)
# if measured viability at 72 h, 1.5625 uM < 90%: yes (1)  # else: no (0)

Worked cases, answers included:
| Compound | Classification |
| --- | --- |
| COC1CC2CCC(C)C(O)(O2)C(=O)C(=O)N2CCCCC2C(=O)OC(C(C)CC2CCC(O)C(OC)C2)CCC(C)C=C(C)C(O)C(OC)C(=O)C(C)CC(C)C=CC=CC=C1C (stereo not shown) | yes (1) |
| CO[C@H]1C[C@@H]2CC[C@@H](C)[C@@](O)(O2)C(=O)C(=O)N2CCCC[C@H]2C(=O)O[C@H]([C@H](C)C[C@@H]2CC[C@@H](O)[C@H](OC)C2)CC(=O)[C@H](C)/C=C(\C)[C@@H](O)CC(=O)[C@H](C)C[C@H](C)/C=C/C=C(C)/C=C/1C | no (0) |
| COC1CC2CCC(C)C(O)(O2)C(=O)C(=O)N2CCCCC2C(=O)OC(C(C)CC2CCC(O)C(OC)C2)CC(O)CC(=O)C(C)C=C(C)C(O)CC(=O)C(C)CC(C)C=CC=CC=C1C (stereo not shown) | yes (1) |

Qu. API: query returns whether the compound falls strictly under 90% in viability at 72 h, 1.5625 uM. Query: CO[C@@H]1C[C@H](C[C@@H](C)[C@@H]2CC(=O)[C@H](C)/C=C(\C)[C@@H](O)[C@@H](OC)C(=O)[C@H](C)C[C@H](C)/C=C/C=C/C=C(\C)[C@H](O)C[C@@H]3CC[C@@H](C)[C@@](O)(O3)C(=O)C(=O)N3CCCC[C@H]3C(=O)O2)CC[C@H]1O [Compound 17, (16R)-16-O-demethyl rapamycin]
Ans. yes (1)

Qu. API: query returns whether the compound falls strictly under 90% in viability at 72 h, 1.5625 uM. Query: COC1CC2CCC(C)C(O)(O2)C(=O)C(=O)N2CCCCC2C(=O)OC(C(C)CC2CCC(O)C(OC)C2)CC(=O)C(C)C=C(C)C(O)C(OC)C(=O)C(C)CC(C)C=CCCC=C1C (stereo not shown)
Ans. yes (1)

Qu. API: query returns whether the compound falls strictly under 90% in viability at 72 h, 1.5625 uM. Query: CO[C@@H]1/C=C/C=C/[C@@H](C)C[C@@H](C)C(=O)C[C@H](O)/C(C)=C/[C@@H](C)C(=O)C[C@@H]([C@H](C)C[C@@H]2CC[C@@H](O)[C@H](OC)C2)OC(=O)[C@@H]2CCCCN2C(=O)C(=O)[C@]2(O)O[C@@H](CC[C@H]2C)C1
Ans. yes (1)
